Values of Ki reported for Glucocorticoid receptor (Homo sapiens, UniProt P04150) appear below.
MEASUREMENT_KIND: Ki (nM)

P. CNC(=O)c1ccc(-c2ccc3c(n2)Oc2ccccc2[C@@H]3C(C)(C)C(=O)Nc2nncs2)cc1F
Q. CC(=O)c1ccc(-c2ccc3c(n2)Oc2ccccc2[C@@H]3C(C)(C)C(=O)Nc2nncs2)cc1
Request: Param pair: P , Q . Output: the one whose Ki is numerically greater. Pick one; state its label.
Response: P

A. CN(C)C(=O)c1ccc(-c2ccc3c(n2)Oc2ccccc2[C@H]3C(C)(C)C(=O)Nc2nncs2)cc1F
B. CCN(C)C(=O)c1ccc(-c2ccc3c(n2)Oc2ccccc2[C@H]3C(C)(C)C(=O)Nc2nncs2)cc1Cl
C. CC(C)(C(=O)Nc1nncs1)[C@H]1c2ccccc2Oc2nc(-c3ccc(C(=O)N4CCC(F)(F)C4)c(Cl)c3)ccc21
Request: Arrange these 3 molecules in increasing order of Ki. Quick reminder: the answer is the labels in the order asked.
Response: A, C, B
(A: 1.94 nM, C: 3.08 nM, B: 15.7 nM)

A. CC(C)(C(=O)Nc1nncs1)[C@H]1c2ccccc2Oc2nc(-c3ccc(C(=O)N4CCOCC4)cc3)ccc21
B. CC(C)Oc1ccc(-c2ccc3c(n2)Oc2ccccc2[C@@H]3C(C)(C)C(=O)Nc2nncs2)cc1F
Request: Of the pair A and B , name the member with the lesser recorded Ki. Pick one; state its label.
Response: A
(A: 2.6 nM, B: 3.9 nM)

* * *

Values of Ki reported for Androgen receptor (Homo sapiens, UniProt P10275) appear below.

- MOL_SMILES: "CN(C)C(=O)c1ccc(-c2ccc3c(n2)Oc2ccccc2[C@H]3C(C)(C)C(=O)Nc2nncs2)cc1F"
  RESULT: "> 5 µM"

Request: Write down the reported Ki (system: Androgen receptor (Homo sapiens, UniProt P10275)) of `CCN(C)C(=O)c1ccc(-c2ccc3c(n2)Oc2ccccc2[C@@H]3C(C)(C)C(=O)Nc2nncs2)cc1F`
Sequence (P10275 whole entry): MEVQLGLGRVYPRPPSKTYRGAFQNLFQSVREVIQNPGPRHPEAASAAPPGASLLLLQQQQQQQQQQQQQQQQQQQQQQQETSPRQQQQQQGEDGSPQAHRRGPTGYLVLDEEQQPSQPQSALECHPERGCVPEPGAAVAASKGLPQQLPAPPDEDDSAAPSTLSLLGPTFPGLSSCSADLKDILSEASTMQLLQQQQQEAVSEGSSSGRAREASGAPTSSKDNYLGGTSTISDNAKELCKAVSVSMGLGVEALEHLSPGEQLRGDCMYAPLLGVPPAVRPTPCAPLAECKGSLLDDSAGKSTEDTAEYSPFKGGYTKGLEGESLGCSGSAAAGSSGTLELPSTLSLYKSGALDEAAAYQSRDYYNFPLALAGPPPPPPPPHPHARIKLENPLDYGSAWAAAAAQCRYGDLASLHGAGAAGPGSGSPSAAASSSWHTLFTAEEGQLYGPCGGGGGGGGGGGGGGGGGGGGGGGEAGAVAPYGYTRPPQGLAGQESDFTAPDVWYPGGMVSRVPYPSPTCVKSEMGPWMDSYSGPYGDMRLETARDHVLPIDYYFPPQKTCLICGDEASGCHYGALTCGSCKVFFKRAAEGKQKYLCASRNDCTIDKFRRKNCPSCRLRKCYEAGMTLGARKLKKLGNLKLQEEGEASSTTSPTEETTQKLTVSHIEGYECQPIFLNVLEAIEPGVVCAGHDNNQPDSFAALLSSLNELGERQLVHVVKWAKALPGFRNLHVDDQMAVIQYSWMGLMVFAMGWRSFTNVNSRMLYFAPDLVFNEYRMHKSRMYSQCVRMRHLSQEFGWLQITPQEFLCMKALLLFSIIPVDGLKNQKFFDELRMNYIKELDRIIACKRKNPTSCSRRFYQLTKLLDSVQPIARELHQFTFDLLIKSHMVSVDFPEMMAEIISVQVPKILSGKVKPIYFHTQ
Response: > 5 µM

* * *

tested on: Blood; test: Antiinflammatory activity in human whole blood assessed as inhibition of LPS-induced TNFalpha production after overnight incubation by ELISA; type: functional, tissue-based
MEASUREMENT_KIND: EC50 (nM)

- MOL_SMILES: "CC(C)(C(=O)Nc1nncs1)[C@H]1c2ccccc2Oc2nc(-c3ccc(C(=O)N4CCOCC4)c(F)c3)ccc21"
  ASSAY_SYSTEM: "Blood"
  EC50 / nM: 469
- MOL_SMILES: "CN(C)C(=O)c1ccc(-c2ccc3c(n2)Oc2ccccc2[C@H]3C(C)(C)C(=O)Nc2nncs2)cc1F"
  ASSAY_SYSTEM: "Blood"
  EC50 / nM: 830
- MOL_SMILES: "CC(C)(C(=O)Nc1nncs1)[C@H]1c2ccccc2Oc2nc(-c3ccc(C(=O)N4CCCC4)c(F)c3)ccc21"
  ASSAY_SYSTEM: "Blood"
  EC50 / nM: 886
- MOL_SMILES: "CC(C)(C(=O)Nc1nncs1)[C@H]1c2ccccc2Oc2nc(-c3ccc(C(=O)N4CCCCC4)c(F)c3)ccc21"
  ASSAY_SYSTEM: "Blood"
  EC50 / nM: 5470
- MOL_SMILES: "C[C@]12C=CC(=O)C=C1CC[C@@H]1[C@@H]2[C@@H](O)C[C@@]2(C)[C@H]1CC[C@]2(O)C(=O)CO"
  ASSAY_SYSTEM: "Blood"
  EC50 / nM: 89

I. CC(C)(C(=O)Nc1nncs1)[C@H]1c2ccccc2Oc2nc(-c3ccc(C(=O)N4CCC(F)(F)C4)c(F)c3)ccc21
II. CCN(C)C(=O)c1ccc(-c2ccc3c(n2)Oc2ccccc2[C@@H]3C(C)(C)C(=O)Nc2nncs2)cc1F
Request: Of the pair I and II , name the member with the lesser recorded EC50. Pick one; state its label.
Response: II
(II: 379 nM, I: 4020 nM)

P. CNC(=O)c1ccc(-c2ccc3c(n2)Oc2ccccc2[C@@H]3C(C)(C)C(=O)Nc2nncs2)cc1F
Q. CCN(C)C(=O)c1ccc(-c2ccc3c(n2)Oc2ccccc2[C@H]3C(C)(C)C(=O)Nc2nncs2)cc1
R. C[C@@H]1C[C@H]2[C@@H]3CCC4=CC(=O)C=C[C@]4(C)[C@@]3(F)[C@@H](O)C[C@]2(C)[C@@]1(O)C(=O)CO
Request: Rank entries according to their EC50, from the largest number down. Quick reminder: the answer is the labels in the order asked.
Response: P, Q, R

* * *

biological target: UniProtKB P04150; experiment: Transactivation activity at GR-alpha in human NP1 Hela cells assessed as induction of GAL4-DBD after 20 hrs by luciferase reporter gene assay; assay type: cell-based
MEASUREMENT_KIND: EC50 (µM)

Worked set:
- MOLECULE: "CCN(C)C(=O)c1ccc(-c2ccc3c(n2)Oc2ccccc2[C@@H]3C(C)(C)C(=O)Nc2nncs2)cc1F"
  ASSAY_SYSTEM: "UniProtKB P04150"
  UNIT_TEXT: "µM"
  READOUT_NUMBER: 0.0985
- MOLECULE: "CC(C)(C(=O)Nc1nncs1)[C@H]1c2ccccc2Oc2nc(-c3ccc(C(=O)N4CCC(F)(F)C4)c(Cl)c3)ccc21"
  ASSAY_SYSTEM: "UniProtKB P04150"
  UNIT_TEXT: "µM"
  READOUT_NUMBER: 0.165
- MOLECULE: "CC(C)(C(=O)Nc1nncs1)[C@H]1c2ccccc2Oc2nc(-c3ccc(C(=O)N4CCOCC4)cc3)ccc21"
  ASSAY_SYSTEM: "UniProtKB P04150"
  UNIT_TEXT: "µM"
  READOUT_NUMBER: 0.0392

I. CN(C)C(=O)c1ccc(-c2ccc3c(c2)Oc2ccccc2C3C(C)(C)C(=O)Nc2nncs2)nc1 (racemic)
II. CCS(=O)(=O)c1ccc(-c2ccc3c(n2)Oc2ccccc2[C@@H]3C(C)(C)C(=O)Nc2nncs2)cc1
Request: Of the pair I and II , name the member with the lesser recorded EC50. Pick one; state its label.
Response: II
(II: 0.206 µM, I: 0.382 µM)

* * *

Values of pKi reported for Glucocorticoid receptor (Homo sapiens, UniProt P04150) appear below.
pKi: −log10 of the molar value.
MEASUREMENT_KIND: pKi

P. CCN(C)C(=O)c1ccc(-c2ccc3c(n2)Oc2ccccc2[C@H]3C(C)(C)C(=O)Nc2nncs2)cc1
Q. CN(C)C(=O)c1ccc(-c2ccc3c(c2)Oc2ccccc2C3C(C)(C)C(=O)Nc2nncs2)nc1 (racemic)
R. CC(C)(C(=O)Nc1nncs1)C1c2ccccc2Oc2ncccc21 (racemic)
Request: Place the items in sequence of falling pKi. Quick reminder: the answer is the labels in the order asked.
Response: P, Q, R

* * *

Biological target: Mineralocorticoid receptor (Homo sapiens, UniProt P08235)
Sequence (P08235 whole entry): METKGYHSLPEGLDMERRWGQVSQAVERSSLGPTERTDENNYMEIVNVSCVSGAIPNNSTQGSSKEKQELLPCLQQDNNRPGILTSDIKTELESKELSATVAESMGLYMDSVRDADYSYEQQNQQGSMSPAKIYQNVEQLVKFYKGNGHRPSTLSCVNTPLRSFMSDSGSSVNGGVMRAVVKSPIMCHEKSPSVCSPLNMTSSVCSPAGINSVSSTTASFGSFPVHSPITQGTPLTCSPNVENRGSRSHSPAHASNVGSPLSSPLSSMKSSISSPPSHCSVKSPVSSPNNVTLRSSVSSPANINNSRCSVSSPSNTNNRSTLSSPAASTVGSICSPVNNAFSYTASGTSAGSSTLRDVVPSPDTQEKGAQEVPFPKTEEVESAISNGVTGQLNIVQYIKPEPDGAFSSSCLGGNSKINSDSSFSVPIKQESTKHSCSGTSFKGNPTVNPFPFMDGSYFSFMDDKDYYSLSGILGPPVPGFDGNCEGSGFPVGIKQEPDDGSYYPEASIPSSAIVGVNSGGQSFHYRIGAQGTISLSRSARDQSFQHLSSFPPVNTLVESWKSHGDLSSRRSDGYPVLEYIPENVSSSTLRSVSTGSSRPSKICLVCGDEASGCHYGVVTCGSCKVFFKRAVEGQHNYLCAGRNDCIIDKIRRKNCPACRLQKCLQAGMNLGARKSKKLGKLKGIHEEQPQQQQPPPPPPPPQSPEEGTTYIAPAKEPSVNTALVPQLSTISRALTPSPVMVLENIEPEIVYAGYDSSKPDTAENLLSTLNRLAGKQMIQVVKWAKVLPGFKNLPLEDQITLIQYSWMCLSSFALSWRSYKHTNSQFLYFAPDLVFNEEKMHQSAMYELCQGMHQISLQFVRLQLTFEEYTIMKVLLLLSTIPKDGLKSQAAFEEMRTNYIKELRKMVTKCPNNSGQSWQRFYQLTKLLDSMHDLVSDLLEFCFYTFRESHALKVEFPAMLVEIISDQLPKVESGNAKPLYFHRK
Assay: Agonist activity at human mineralocorticoid receptor expressed in human A549 cells by fluorescence polarization assay
pEC50: −log10 of the molar value.
Reported pEC50 values are given for each entry in this list.

Worked set:
- MOL_SMILES: "CCN(C)C(=O)c1ccc(-c2ccc3c(n2)Oc2ccccc2[C@@H]3C(C)(C)C(=O)Nc2nncs2)cc1F"
  pEC50: "< 5.30"
- MOL_SMILES: "C[C@]12C=CC(=O)C=C1CC[C@@H]1[C@@H]2[C@@H](O)C[C@@]2(C)[C@H]1CC[C@]2(O)C(=O)CO"
  pEC50: 8.70

Request: Write down the reported pEC50 (system: Mineralocorticoid receptor (Homo sapiens, UniProt P08235)) of `CN(C)C(=O)c1ccc(-c2ccc3c(n2)Oc2ccccc2[C@H]3C(C)(C)C(=O)Nc2nncs2)cc1F`
Response: < 5.30

Request: Write down the reported pEC50 (system: Mineralocorticoid receptor (Homo sapiens, UniProt P08235)) of `CN(C)C(=O)c1ccc(-c2ccc3c(n2)Oc2ccccc2[C@@H]3C(C)(C)C(=O)Nc2nncs2)cc1`
Response: < 5.30
